# maps each entry to its log10 of IC50
- assay system: PI3K-delta (Homo sapiens, UniProt O00329)
- Construct: Millipore 14-604
- Sequence (O00329 whole entry): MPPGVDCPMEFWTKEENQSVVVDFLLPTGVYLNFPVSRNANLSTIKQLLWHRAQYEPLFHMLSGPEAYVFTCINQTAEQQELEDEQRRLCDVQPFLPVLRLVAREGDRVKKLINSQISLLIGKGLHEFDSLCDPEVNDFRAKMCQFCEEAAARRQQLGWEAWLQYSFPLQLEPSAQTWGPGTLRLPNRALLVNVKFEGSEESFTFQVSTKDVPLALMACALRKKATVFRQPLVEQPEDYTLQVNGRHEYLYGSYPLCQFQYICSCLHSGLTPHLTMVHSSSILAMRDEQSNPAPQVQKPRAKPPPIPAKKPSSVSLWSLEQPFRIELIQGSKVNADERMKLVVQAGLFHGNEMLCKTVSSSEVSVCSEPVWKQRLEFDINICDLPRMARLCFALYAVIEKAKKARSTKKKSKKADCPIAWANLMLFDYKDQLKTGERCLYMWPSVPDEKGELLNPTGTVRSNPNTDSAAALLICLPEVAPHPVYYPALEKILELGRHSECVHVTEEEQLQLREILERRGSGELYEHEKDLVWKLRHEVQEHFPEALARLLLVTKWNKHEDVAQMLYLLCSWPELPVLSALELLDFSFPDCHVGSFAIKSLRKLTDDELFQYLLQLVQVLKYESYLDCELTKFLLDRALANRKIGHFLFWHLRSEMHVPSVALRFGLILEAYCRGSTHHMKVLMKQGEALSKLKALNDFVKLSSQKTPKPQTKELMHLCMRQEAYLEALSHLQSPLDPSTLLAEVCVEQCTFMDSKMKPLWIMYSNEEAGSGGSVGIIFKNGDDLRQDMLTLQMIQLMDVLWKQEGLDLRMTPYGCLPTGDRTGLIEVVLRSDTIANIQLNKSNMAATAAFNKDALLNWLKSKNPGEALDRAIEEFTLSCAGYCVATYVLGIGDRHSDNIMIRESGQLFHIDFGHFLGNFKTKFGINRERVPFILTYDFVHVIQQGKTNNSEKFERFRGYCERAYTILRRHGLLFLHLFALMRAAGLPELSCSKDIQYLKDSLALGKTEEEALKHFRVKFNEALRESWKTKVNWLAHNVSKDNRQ
- Sequence (P27986 whole entry partner): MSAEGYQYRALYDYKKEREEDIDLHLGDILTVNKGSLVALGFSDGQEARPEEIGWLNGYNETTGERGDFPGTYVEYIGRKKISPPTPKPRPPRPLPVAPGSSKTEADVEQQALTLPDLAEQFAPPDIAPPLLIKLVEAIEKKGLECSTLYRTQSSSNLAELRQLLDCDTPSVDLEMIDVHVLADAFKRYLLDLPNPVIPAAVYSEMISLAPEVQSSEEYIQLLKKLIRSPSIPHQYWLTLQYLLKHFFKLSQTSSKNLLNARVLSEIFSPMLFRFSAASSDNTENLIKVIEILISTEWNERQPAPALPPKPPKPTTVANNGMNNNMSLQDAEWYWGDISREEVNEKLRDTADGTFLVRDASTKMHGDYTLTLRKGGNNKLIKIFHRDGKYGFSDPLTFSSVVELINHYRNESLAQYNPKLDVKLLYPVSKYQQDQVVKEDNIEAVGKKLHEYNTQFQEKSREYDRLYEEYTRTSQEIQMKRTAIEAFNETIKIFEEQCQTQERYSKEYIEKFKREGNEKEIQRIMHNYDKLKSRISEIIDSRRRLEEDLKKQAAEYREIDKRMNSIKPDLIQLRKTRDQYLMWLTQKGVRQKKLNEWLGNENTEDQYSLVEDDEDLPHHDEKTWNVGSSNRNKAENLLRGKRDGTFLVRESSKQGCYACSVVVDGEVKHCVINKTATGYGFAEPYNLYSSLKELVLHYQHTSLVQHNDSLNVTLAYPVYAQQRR
- assay details: HTRF PI3K biochemical assay, delta isoform
- cond: form screened (neutral or TFA salt) given, read-out: PI3Kdelta IC50
endpoint label: log10 of IC50 (log10 of the value in nM)

INSERT INTO assay_data (molecule, test_result) VALUES
  ('CCn1c(CCCO)nc2c(N[C@H]3CCN(C(=O)C4CC4)C3)ncnc21 [Compound 7-6]', 2.04),
  ('CCn1c(Oc2ccc(OC)c(F)c2)nc2c(N[C@H]3CCN(C(=O)C4CC4)C3)ncnc21 [Compound 8-6]', 0.91),
  ('COc1ncc(-c2nc3c(N[C@H]4CCN(C(=O)OC(C)(C)C)C4)ncnc3n2C)cc1C [Compound 1-8]', 0.23),
  ('CCC(=O)N1CCC[C@H](Nc2ncnc3c2nc(-c2cnn(CC)c2C)n3C)C1 [Compound 2-46]', 0.96),
  ('CCn1c(-c2cnc(C)nc2)nc2c(N[C@H]3CCN(C(=O)C4(C)CC4)C3)ncnc21 [Compound 2-47]', 1.23),
  ('CCC(=O)N1CC[C@H](Nc2ncnc3c2nc(-c2ccc(S(C)(=O)=O)cc2)n3C)C1 [Compound 3-27]', 1.59),
  ('CCn1c(C(=O)NCCOC)nc2c(N[C@H]3CCN(C(=O)C4CC4)C3)ncnc21 [Compound 6-2]', 1.93),
  ('CCC(=O)N1CC[C@H](Nc2ncnc3c2nc(CC(C)C)n3C)C1 [Compound 7-3]', 2.15),
  ('CCn1c(-c2cnc(C)nc2)nc2c(N[C@H]3CCN(C(=O)N4CC[C@H](F)C4)C3)ncnc21 [Compound 12-13]', 0.23),
  ('Cc1ncc(-c2nc3c(N[C@H]4CCN(C(=O)C5CC5)C4)ncnc3n2CC(F)(F)F)cn1 [Compound 9-5]', 2.76),
  ('CCn1c(C(=O)NC(C)(C)C)nc2c(N[C@H]3CCN(C(=O)C4CC4)C3)ncnc21 [Compound 6-16]', 1.30),
  ('CCC(=O)N1CC[C@@H](Nc2ncnc3c2nc(-c2cnn(CC)c2C)n3C)C1 [Compound 2-1]', 1.51),
  ('CCn1c(N2CC[C@@H](O)C2)nc2c(N[C@H]3CCN(C(=O)C4CC4)C3)ncnc21 [Compound 8-1]', 2.71),
  ('CCn1c(-c2cncc(Cl)c2)nc2c(N[C@H]3CCN(C(=O)C4CC4)C3)ncnc21 [Compound 3-38]', 0.26),
  ('CCn1c(-c2cnc(C)nc2)nc2c(NC3CN(C(C)C4CC4)CC34CC4)ncnc21 (stereo not drawn) [Compound 10-2]', 1.61),
  ('CCn1c(C(F)F)nc2c(N[C@H]3CCN(C(=O)c4cocn4)C3)ncnc21 [Compound 7-16]', 2.08),
  ('CCCN1CC(Nc2ncnc3c2nc(-c2cnc(C)nc2)n3CC)CC1=O (racemic) [Compound 14-4]', 1.38),
  ('CCn1c(-c2cnc(C)nc2)nc2c(NC3CN(C(=O)C4CC4)CC3(F)F)ncnc21 (single isomer, unassigned) [Compound 2-26]', 1.00),
  ('CCn1c(-c2cnc(C)nc2)nc2c(N[C@H]3CCN(C(=O)C4CCOC(C)(C)C4)C3)ncnc21 (mixture of isomers) [Compound 2-20]', 0.15),
  ('CCOC(=O)C(C)NC(=O)N1CC[C@H](Nc2ncnc3c2nc(-c2cnc(C)nc2)n3CC)C1 (stereo partly drawn) [Compound 12-18]', 1.11);

---

- assay system: PI3K-delta (Homo sapiens)
- Construct: Millipore 14-604
- assay details: HTRF PI3K biochemical assay, delta isoform
- cond: form screened (neutral or TFA salt) given, read-out: PI3Kdelta IC50
Field: label. Allowed values: 1.0 (IC50 < 9 nM) or 0.0 (IC50 >= 9 nM).

INSERT INTO measurements (compound, assigned_class) VALUES
  ('CCn1c(-c2cnc(C)nc2)nc2c(N[C@H]3C[C@@H](C(N)=O)N(C(=O)C4CC4)C3)ncnc21', 0.0),
  ('CCC(=O)N1CC[C@H](Nc2ncnc3c2nc(-c2ccc4cc[nH]c4c2)n3C)C1', 1.0),
  ('CCn1c(-c2cnc(C)nc2)nc2c(N[C@H]3CCN(C(=O)C4CCCCN4)C3)ncnc21 (mixture of isomers)', 0.0),
  ('CCn1c(-c2cnc(C)nc2)nc2c(N[C@H]3C[C@H](c4nnc(C)o4)N(C(=O)C4CC4)C3)ncnc21', 0.0),
  ('CCn1c(-c2cnc(C)nc2)nc2c(N[C@H]3C[C@@H](C(=O)NC)N(C(=O)C4CC4)C3)ncnc21', 0.0),
  ('CCNC(=O)c1nc2c(N[C@H]3CCN(C(=O)C4CC4)C3)ncnc2n1CC', 0.0),
  ('CCn1c(-c2cnc(C)nc2)nc2c(N(C)[C@H]3CCN(C(=O)C4CC4)C3)ncnc21', 0.0),
  ('CCn1c(-c2cnc(C)nc2)nc2c(NC3CN(C(=O)OC(C)(C)C)CC3(F)F)ncnc21 (racemic)', 0.0),
  ('CCn1c(-c2cnc(C)nc2)nc2c(N[C@H]3CCN(C(=O)C4(C#N)CCCC4)C3)ncnc21', 1.0),
  ('CCn1c(-c2cnc(C)nc2)nc2c(NC3CN(C(=O)OC(C)(C)C)CC3O)ncnc21 (racemic)', 0.0),
  ('CCn1c(-c2cnc(C)nc2)nc2c(N[C@H]3CCN(C(=O)Cc4ccccc4)C3)ncnc21', 0.0),
  ('CCC1CN(C(=O)C2CC2)CC1Nc1ncnc2c1nc(-c1cnc(C)nc1)n2CC (single isomer, unassigned) [Compound 3-20]', 1.0),
  ('CCn1c(-c2cnc(C)nc2)nc2c(N[C@H]3CCN(C(=O)C4CCC4)C3)ncnc21', 1.0),
  ('CCn1ncc(-c2nc3c(NC4CC(=O)N(CC(C)C)C4)ncnc3n2C)c1C (racemic)', 1.0),
  ('CCn1c(-c2cnc(C)nc2)nc2c(N[C@H]3CCN(C(=O)NCc4ccco4)C3)ncnc21', 1.0),
  ('CCn1c(-c2cnc(C)nc2)nc2c(N[C@H]3CCN(C(=O)N4CC[C@@H](OC)C4)C3)ncnc21', 1.0),
  ('CCn1c(-c2cnc(C)nc2)nc2c(N(C)[C@H]3CCN(C(=O)[C@H]4CC[C@@H](O)CC4)C3)ncnc21', 1.0),
  ('Cc1ncc(-c2nc3c(N[C@H]4CCN(C(=O)C5CC5)C4)ncnc3n2C)cn1', 1.0),
  ('CCn1c(-c2cnc(C)nc2)nc2c(N[C@H]3CCN(C(=O)[C@H]4C[C@@H](OC)C4)C3)ncnc21', 1.0),
  ('CCn1c(-c2cnc(C)nc2)nc2c(N[C@H]3C[C@H](C(=O)NC)N(C(=O)C4CC4)C3)ncnc21', 0.0),
  ('CCn1c(-c2ccc(C(F)(F)F)nc2)nc2c(N[C@H]3CCN(C(=O)[C@@H]4CC4(C)C)C3)ncnc21', 1.0),
  ('CCNC(=O)N1CCC[C@H](Nc2ncnc3c2nc(-c2cnn(CC)c2C)n3C)C1', 0.0),
  ('CCn1c(C(F)F)nc2c(N[C@H]3CCN(C(=O)[C@H]4C[C@@H](OC)C4)C3)ncnc21', 0.0);

---

- assay system: PI3K-delta (Homo sapiens)
- Construct: Millipore 14-604
- assay details: HTRF PI3K biochemical assay, delta isoform
- cond: form screened (neutral or TFA salt) given, read-out: PI3Kdelta IC50
endpoint label: IC50

INSERT INTO results (compound, test_result) VALUES
  ('CCn1c(C(=O)NCC(F)(F)F)nc2c(N[C@H]3CCN(c4ccccn4)C3)ncnc21', '16 nM'),
  ('CCn1c(-c2cnc(OC)c(F)c2)nc2c(N[C@H]3CCN(C(=O)C4CC(F)(F)C4)C3)ncnc21', '< 1 nM'),
  ('CCn1c(-c2cnc(C)nc2)nc2c(N[C@H]3CCN(C(=O)C4(O)CC4)C3)ncnc21', '10 nM'),
  ('CCn1c(-c2cnc(C)nc2)nc2c(N[C@H]3CCN(C(=O)C4CC(O)C4)C3)ncnc21 (mixture of isomers)', '< 1 nM'),
  ('CCCN1CC(Nc2ncnc3c2nc(-c2cnn(CC)c2C)n3C)CC1=O (racemic)', '11 nM'),
  ('CCn1ncc(-c2nc3c(N[C@H]4CCN(C(=O)C5CCOCC5)C4)ncnc3n2C)c1C', '< 1 nM'),
  ('CCn1c(-c2ccc(C(F)(F)F)nc2)nc2c(N[C@H]3CCN(C(=O)[C@H]4C[C@@H](OC)C4)C3)ncnc21', '< 1 nM'),
  ('CCn1c(-c2ccc(C(F)(F)F)nc2)nc2c(N[C@H]3CCN(c4ccccn4)C3)ncnc21', '< 1 nM'),
  ('CCn1c(-c2cnc(C)nc2)nc2c(N[C@H]3CCN(C(=O)C4CC4)[C@@H]3C)ncnc21', '< 1 nM');
